The values you see were collected from patent US20220195023A1.

molecular target: (NPNA)3 (Plasmodium falciparum); test: BLI, target on sensor
assayReadout: Kd (nM)
# number only, unit nM dropped from output

Sample answers from the record:
{"columns": ["binder", "valueReported"],
 "data": [
  ["AB-007037 (antibody, V domains shown) VH: QMQLVESGGGVVQPGRSLRLSCTASGFTFSTYAMHWVRQSPGQGLQWVAVISYHSTNKYYEDSVKGRFTISRDNSKNTLYLQMNSLRAEDTAVYYCARDGYSSSFFDFWGQGTLVTVSS VL: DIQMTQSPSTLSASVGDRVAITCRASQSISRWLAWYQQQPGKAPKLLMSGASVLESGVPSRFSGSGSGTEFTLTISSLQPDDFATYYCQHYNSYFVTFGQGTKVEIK", 0.0035],
  ["AB-007069 (antibody, V domains shown) VH: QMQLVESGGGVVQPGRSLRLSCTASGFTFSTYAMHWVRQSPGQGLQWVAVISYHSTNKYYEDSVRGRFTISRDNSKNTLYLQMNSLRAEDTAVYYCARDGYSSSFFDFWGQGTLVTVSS VL: DIQMTQSPSTLSASVGDRVAITCRASQSISRWLAWYQQQPGKAPKLLMSVASVLESGVPSRFSGSGSGTEFTLTISSLQPDDFATYYCQHYNSYFVTFGQGTKVEIK", 1.43]
]}

What value of Kd has been recorded for this entry: AB-007061 (antibody, V domains shown) VH: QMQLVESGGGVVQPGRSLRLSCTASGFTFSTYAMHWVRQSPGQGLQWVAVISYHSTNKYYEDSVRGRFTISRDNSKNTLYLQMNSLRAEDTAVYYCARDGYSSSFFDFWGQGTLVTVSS VL: DIQMTQSPSTLSASVGDRVAITCRASQSIDRWLAWYQQQPGKAPKLLMSGASVLESGVPSRFSGSGSGTEFTLTISSLQPDDFATYYCQHYNSYFVTFGQGTKVEIK
0.00376

Would you mind telling me what Kd value was observed for AB-007064 (antibody, V domains shown) VH: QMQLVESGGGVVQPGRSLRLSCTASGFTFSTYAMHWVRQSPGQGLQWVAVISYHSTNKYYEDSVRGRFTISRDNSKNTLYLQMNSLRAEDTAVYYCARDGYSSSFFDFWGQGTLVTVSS VL: DIQMTQSPSTLSASVGDRVAITCRASQSISRWLAWYQQQPGKAPKLLMTGASVLESGVPSRFSGSGSGTEFTLTISSLQPDDFATYYCQHYNSYFVTFGQGTKVEIK ?
0.453

// lookup Kd for AB-007050 (antibody, V domains shown) VH: QMQLVESGGGVVQPGRSLRLSCTASGFTFSTYAMHWVRQSPGQGLQWVAVISQHSTNKYYEDSVRGRFTISRDNSKNTLYLQMNSLRAEDTAVYYCARDGYSSSFFDFWGQGTLVTVSS VL: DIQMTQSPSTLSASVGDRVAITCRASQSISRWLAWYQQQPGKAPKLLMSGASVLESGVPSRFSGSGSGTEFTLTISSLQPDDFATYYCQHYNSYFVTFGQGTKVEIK
1.05
